target: Sodium/glucose cotransporter 2 (Homo sapiens, UniProt P31639); test: Inhibition of human SGLT2 expressed in HEK293 cells using 14C-AMG as substrate preincubated for 15 mins followed by substrate addition measured after 2 hrs by liquid scintillation counter analysis
Sequence (P31639 whole entry): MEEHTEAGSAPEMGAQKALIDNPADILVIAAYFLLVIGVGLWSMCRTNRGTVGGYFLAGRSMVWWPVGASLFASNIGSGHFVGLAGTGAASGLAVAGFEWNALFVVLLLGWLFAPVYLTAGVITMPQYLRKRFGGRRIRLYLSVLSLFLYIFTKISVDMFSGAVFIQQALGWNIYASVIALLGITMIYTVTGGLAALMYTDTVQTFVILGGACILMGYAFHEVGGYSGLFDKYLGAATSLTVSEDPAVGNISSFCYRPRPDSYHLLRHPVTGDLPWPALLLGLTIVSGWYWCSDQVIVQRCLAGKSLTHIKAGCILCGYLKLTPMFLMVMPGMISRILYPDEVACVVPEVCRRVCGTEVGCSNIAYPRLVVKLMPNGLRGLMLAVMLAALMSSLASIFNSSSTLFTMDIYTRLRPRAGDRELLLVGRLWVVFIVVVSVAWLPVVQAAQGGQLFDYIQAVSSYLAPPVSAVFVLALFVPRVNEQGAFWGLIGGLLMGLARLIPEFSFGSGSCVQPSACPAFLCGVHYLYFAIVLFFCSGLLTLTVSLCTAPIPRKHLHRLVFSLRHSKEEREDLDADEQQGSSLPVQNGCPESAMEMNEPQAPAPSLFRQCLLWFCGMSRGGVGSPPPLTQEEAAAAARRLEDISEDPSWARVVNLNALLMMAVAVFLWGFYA
endpointName: IC50 (nM)
Give just the number in nM; leave the unit off.

Given the entry CCOc1ccc(Cc2cc([C@@]34OC[C@@](CO)(O3)[C@@H](O)[C@H](O)[C@H]4O)ccc2Cl)cc1F [HENAGLIFLOZIN] , report its measured IC50.
2.38

---

molecular target: Sodium/glucose cotransporter 1 (Homo sapiens, UniProt P13866); assay: Inhibition of human SGLT1 expressed in HEK293 cells using 14C-AMG as substrate preincubated for 15 mins followed by substrate addition measured after 2 hrs by liquid scintillation counter analysis; format: cell-based
Sequence (P13866 whole entry): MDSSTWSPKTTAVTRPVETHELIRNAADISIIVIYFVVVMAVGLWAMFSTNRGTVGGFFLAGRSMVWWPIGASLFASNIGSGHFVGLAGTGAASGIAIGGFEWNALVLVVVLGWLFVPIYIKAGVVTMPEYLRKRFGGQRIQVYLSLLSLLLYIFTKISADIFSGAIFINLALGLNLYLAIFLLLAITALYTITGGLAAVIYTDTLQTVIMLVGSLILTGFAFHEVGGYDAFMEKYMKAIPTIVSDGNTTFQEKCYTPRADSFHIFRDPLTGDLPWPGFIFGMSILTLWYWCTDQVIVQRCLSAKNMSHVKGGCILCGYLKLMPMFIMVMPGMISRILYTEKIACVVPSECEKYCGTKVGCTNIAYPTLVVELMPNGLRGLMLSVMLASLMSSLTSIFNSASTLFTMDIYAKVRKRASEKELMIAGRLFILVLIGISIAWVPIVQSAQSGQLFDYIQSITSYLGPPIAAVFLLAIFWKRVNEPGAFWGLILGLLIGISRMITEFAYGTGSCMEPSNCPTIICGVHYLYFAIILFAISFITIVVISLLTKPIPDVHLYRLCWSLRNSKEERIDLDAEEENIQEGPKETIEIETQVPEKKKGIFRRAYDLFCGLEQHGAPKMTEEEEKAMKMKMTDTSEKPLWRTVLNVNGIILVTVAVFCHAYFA
endpointName: IC50 (µM)
Give just the number in µM; leave the unit off.

Given the entry CCOc1ccc(Cc2cc([C@@]34OC[C@@](CO)(O3)[C@@H](O)[C@H](O)[C@H]4O)ccc2Cl)cc1F [HENAGLIFLOZIN] , report its measured IC50.
4.32
